These entries and their values trace back to patent US20100029704A1.

method_summary: Skin permeability test using isolated rat abdominal skin (Franz-type diffusion cell)
cond: accumulated up to 6 hours; 2.5 wt % as NSAID free acid in diethyl sebacate/propylene glycol; 32° C.
measurement_label: flurbiprofen permeation amount
Answer format: value, then unit.

Tell us which flurbiprofen permeation amount value is on record for CC(C(=O)O)c1ccc(-c2ccccc2)c(F)c1.CC(O)CN(CC(C)O)CC(C)O (centres unmarked) [flurbiprofen-TIPA salt]
91.8 μg/cm^2

Provide measured flurbiprofen permeation amount value, entry: CC(C(=O)O)c1ccc(-c2ccccc2)c(F)c1.CCN(CC)CC(=O)Nc1c(C)cccc1C (centres unmarked) [flurbiprofen-lidocain salt]
91.0 μg/cm^2

Output measured flurbiprofen permeation amount for this item: CC(C(=O)O)c1ccc(-c2ccccc2)c(F)c1 (centres unmarked) [flurbiprofen, reference compound]
20.2 μg/cm^2

Read off the recorded flurbiprofen permeation amount for CC(C(=O)O)c1ccc(-c2ccccc2)c(F)c1.Cc1ccc(C(=O)C(C)CN2CCCCC2)cc1 (centres unmarked) [flurbiprofen-tolperisone salt]
46.3 μg/cm^2

Dear colleague, please send me the reported flurbiprofen permeation amount for CC(C(=O)O)c1ccc(-c2ccccc2)c(F)c1.COc1cccc(C2(O)CCCCC2CN(C)C)c1 (centres unmarked) [flurbiprofen-tramadol salt] when you can.
78.1 μg/cm^2

---

method_summary: Solubility of NSAID-eperisone salt and NSAID free acid in diethyl sebacate
Type: physicochemical
cond: NSAID free acid; room temperature
measurement_label: amount (g) of diethyl sebacate necessary for dissolving NSAID (1 g)

Here are 4 compounds together with their reported answers.
[[record]]
compound = "COc1ccc2c(c1)c(CC(=O)O)c(C)n2C(=O)c1ccc(Cl)cc1"
assay_result = "not less than 100 g"

[[record]]
compound = "CCc1cccc2c3c([nH]c12)C(CC)(CC(=O)O)OCC3 (centres unmarked) [etodolac, reference compound]"
assay_result = "not more than 10 g"

[[record]]
compound = "CC(C(=O)O)c1ccc(-c2ccccc2)c(F)c1 (centres unmarked) [flurbiprofen, reference compound]"
assay_result = "not more than 10 g"

[[record]]
compound = "O=C(O)Cc1ccccc1Nc1c(Cl)cccc1Cl"
assay_result = "not less than 100 g"


Next, consider the following compound.
Specify measured amount (g) of diethyl sebacate necessary for dissolving NSAID (1 g) for CC(C(=O)O)c1ccc(CC2CCCC2=O)cc1 (centres unmarked) .
not less than 100 g

---

method_summary: Skin permeability test using isolated rat abdominal skin (Franz-type diffusion cell)
cond: accumulated up to 6 hours; 2.5 wt % as NSAID free acid in diethyl sebacate/propylene glycol; 32° C.
measurement_label: indomethacin permeation amount
Record the result as number plus unit.

Return indomethacin permeation amount for the following compound: "COc1ccc2c(c1)c(CC(=O)O)c(C)n2C(=O)c1ccc(Cl)cc1"
6.9 μg/cm^2

Assign indomethacin permeation amount to the following record: COc1ccc2c(c1)c(CC(=O)O)c(C)n2C(=O)c1ccc(Cl)cc1.Cc1ccc(C(=O)C(C)CN2CCCCC2)cc1 [indomethacin-tolperisone salt]
14.7 μg/cm^2

For the compound COc1ccc2c(c1)c(CC(=O)O)c(C)n2C(=O)c1ccc(Cl)cc1.COc1cccc(C2(O)CCCCC2CN(C)C)c1 [indomethacin-tramadol salt] , give its measured indomethacin permeation amount value.
9.8 μg/cm^2

In one line, give reported indomethacin permeation amount of the entry CC(O)CN(CC(C)O)CC(C)O.COc1ccc2c(c1)c(CC(=O)O)c(C)n2C(=O)c1ccc(Cl)cc1 [indomethacin-TIPA salt] .
15.8 μg/cm^2
